Measured pKd values are reported for all entries that follow.
Tested On: T1, human AGR2 WT (human, UniProt O95994 21-175)
T1 construct: also called hAGR2; recombinant human AGR2
T1 sequence: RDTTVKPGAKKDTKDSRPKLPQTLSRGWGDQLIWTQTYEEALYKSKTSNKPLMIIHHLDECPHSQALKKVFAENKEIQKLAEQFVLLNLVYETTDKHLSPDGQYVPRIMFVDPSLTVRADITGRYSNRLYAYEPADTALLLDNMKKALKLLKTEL
Assay Overview: kinetics, antibody immobilized, hAGR2 soluble analyte; instrument not stated
Please express pKd as -log10 of the molar concentration.

Answered examples (3):
TH-115 IgG1-LALA humanized monoclonal antibody (antibody, V domains shown) VH: QVQLLESGGGLVKPGGSLRLSCATSGYVFSRSWMNWIRQAPGQGLEWIGWIYPGDGDTNYNGKVKDRFTLSADKAKNSVYLQMNSLRAEDTAVYFCARGGYDGSPWLSYWGQGTLVTVSS VL: EIVLTQSPDFQSVTPKEKVTITCKASQDINSYLSWFQQKPDQSPKTLIYRANRLVDGVPSRFSGSGSGQDFTLTINSLEAEDAATYYCLQYDEFPFTFGGGTKVEIKR	10.20
TH-101 IgG1-LALA humanized monoclonal antibody (antibody, V domains shown) VH: QVQLVQSGAEVKKPGASVKVSCKTSGYVFSRSWMNWVRQAPGQGLEWIGWIYPGDGDTNYNGKFKDRVTLTADKSTSTVYMELSSLRSEDTAVYFCARGGYDGSPWLSYWGQGTLVTVSS VL: DIQMTQSPSSLSASVGDRVTITCKASQDINSYLSWFQQKPGKAPKTLIYRANRLVDGVPSRFSGSGSGQDFTLTISSLQPEDIATYYCLQYDEFPFTFGGGTKVEIKR	9.94
TH-104 IgG1-LALA humanized monoclonal antibody (antibody, V domains shown) VH: QVQLVQSGSELKKPGASVKVSCKTSGYVFSRSWMNWVRQAPGQGLEWIGWIYPGDGDTNYNGKFKDRFVLSADKSVSTVYLQISSLKAEDTAVYFCARGGYDGSPWLSYWGQGTLVTVSS VL: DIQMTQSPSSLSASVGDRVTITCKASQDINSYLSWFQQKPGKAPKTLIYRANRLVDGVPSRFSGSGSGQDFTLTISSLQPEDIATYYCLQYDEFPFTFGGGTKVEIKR	10.56

The measured pKd associated with TH-109 IgG1-LALA humanized monoclonal antibody (antibody, V domains shown) VH: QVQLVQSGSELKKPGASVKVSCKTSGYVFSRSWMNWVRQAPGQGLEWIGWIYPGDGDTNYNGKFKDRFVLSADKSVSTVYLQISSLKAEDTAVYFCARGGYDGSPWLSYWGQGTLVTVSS VL: EIVLTQSPATLSLSPGERATLSCKASQDINSYLSWFQQKPGQAPRTLIYRANRLVDGIPARFSGSGSGQDFTLTISSLEPEDFAVYYCLQYDEFPFTFGGGTKVEIKR reads 10.58

src = patent US20260193331A1
